These data points were gathered from the supplement of paper PMC6470124.

assayMethodText: absolute recovery over mixed-bed multilayer solid-phase extraction; higher = better recovery
runConditions: surface water; enrichment method: SPE
quantityName: absolute recovery (%)
Give just the number in %; leave the unit off.

Look over these answered cases.
compound: COC(=O)c1sccc1S(=O)(=O)[N-]C(=O)Nc1nc(C)nc(OC)n1
reportedMeasurement: 95
--
compound: Cc1cccc(C)c1N(Cn1cccn1)C(=O)CCl
reportedMeasurement: 97
--
compound: Cc1cccc(Nc2ccccc2C(=O)[O-])c1C
reportedMeasurement: 95.7
--
compound: Nc1c(Cl)c(F)nc(OCC(=O)[O-])c1Cl [Fluroxypyr (free acid)]
reportedMeasurement: 95.8

Data request: Assign absolute recovery to the following record: C#CCN1C(=O)COc2cc(F)c(N3C(=O)C4=C(CCCC4)C3=O)cc21
Data returned: 77.4

Data request: Answer with the recorded absolute recovery for the compound listed here: Cn1sc(Cl)cc1=O
Data returned: 56.7

Data request: Item CS(=O)(=O)c1cc(C(F)(F)F)ccc1C(=O)c1cnoc1C1CC1 : provide absolute recovery
Data returned: 21.8

Data request: Provide one value: measured absolute recovery of COP(=O)(OC)SCn1c(=O)oc2cc(Cl)cnc21
Data returned: 65.7

Data request: Indicate the recorded absolute recovery value for this compound: C[NH2+]CCCC(C#N)(c1ccc(OC)c(OC)c1)C(C)C (centres undefined)
Data returned: 84.5

---

Known absolute recovery of a selection of compounds
assayMethodText: absolute recovery over mixed-bed multilayer solid-phase extraction; higher = better recovery
runConditions: wastewater influent; enrichment method: SPE
Quick note: give the figure in %, leave out the unit.

// known answers, use as guide
compound: Nc1nc(=O)c2ncn(CCC(CO)CO)c2[nH]1
quantityName: absolute recovery
reportedMeasurement: 91.8
--
compound: O=C(Nc1ccc(Cl)cc1)Nc1ccc(Cl)c(Cl)c1
quantityName: absolute recovery
reportedMeasurement: 64.3

Data request: Give reported absolute recovery value for CCCC[NH+]1CCCCC1C(=O)Nc1c(C)cccc1C (stereo not given)
Data returned: 93.7

Data request: Supply absolute recovery value. Item: CC12CCC3=C4CCC(=O)C=C4CCC3C1CCC2(O)CC#N (stereo not given)
Data returned: 87

Data request: Consider the compound COCC(=O)N(c1c(C)cccc1C)C(C)C(=O)OC (stereo not given) [Metalaxyl] and give its recorded absolute recovery.
Data returned: 94.7

Data request: Please look at this compound and report its absolute recovery: CCOC(=O)C1=CC(OC(CC)CC)C(NC(C)=O)C([NH3+])C1 (stereo not given)
Data returned: 80.4

Data request: Please give measured absolute recovery of the following entry: COC(=O)C(Cc1ccccc1)NC(=O)C([NH3+])CC(=O)[O-] (stereo not given)
Data returned: 58.7

Data request: Return absolute recovery (reported value) for this compound: C#CCOc1ccc(CCNC(=O)C(OCC#C)c2ccc(Cl)cc2)cc1OC (stereo not given)
Data returned: 93.5

Data request: Name the recorded absolute recovery of the item COc1ccc2c(c1)c(CC(=O)[O-])c(C)n2C(=O)c1ccc(Cl)cc1 in your answer.
Data returned: 91.5

Data request: Assign absolute recovery to the following record: NC(=O)N=C1SCCN1Cc1ccc(Cl)nc1 [Thiacloprid-amide]
Data returned: 96.3

Data request: # return recorded absolute recovery for entry CCCC(Cn1cncn1)c1ccc(Cl)cc1Cl (stereo not given)
Data returned: 87.3

Data request: Indicate its recorded absolute recovery; the compound in question is COCCc1ccc(OCC(O)C[NH2+]C(C)C)cc1 (stereo not given)
Data returned: 89.5

Data request: Identify the reported absolute recovery for the following entry. C1=Cc2ccccc2Nc2ccccc21
Data returned: 89

Data request: Quickly give me recorded absolute recovery for CCN(CC)C(=O)C(C)Oc1cccc2ccccc12 (stereo not given)
Data returned: 96.1

Data request: Note absolute recovery for the compound shown: O=C(OC1CC2CCC(C1)[N+]21CCCC1)C(O)(c1ccccc1)c1ccccc1 (stereo not given)
Data returned: 87.3

Data request: # return recorded absolute recovery for entry CC1COc2c(N3CCN(C)CC3)c(F)cc3c(=O)c(C(=O)[O-])cn1c23 (stereo not given)
Data returned: 114

Data request: Given NC(=O)Nc1ccc(Cl)c(Cl)c1 , respond with its absolute recovery.
Data returned: 94.9

Data request: Given the compound CC(C)[NH2+]CC(O)COc1ccc(CC(=O)[O-])cc1 (stereo not given) , write its reported absolute recovery.
Data returned: 75.4

Data request: Please give measured absolute recovery of the following entry: NC1=[NH+]CCN1Cc1ccc(Cl)nc1
Data returned: 106

Data request: Query absolute recovery for CCCCOc1ccc(CC(=O)NO)cc1
Data returned: 84.7
